Readings of protein stability index for the listed variants
B1: SPOPL (parent)
chain: YTGRAPNLDKMADNLLAAADKYAL

- Variants of: B1
- EXPERIMENT DESCRIPTION: protein stability index of a GFP-peptide fusion (GPS, HEK-293T) (PSI 1-6); higher = more stable;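 also: lentivirally expressed fusions sorted by FACS into six bins by GFP to DsRed ratio, PSI derived from sequencing read proportions per bin multiplied by bin number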
- MEASUREMENT PARAMETERS: c terminus: a fixed tail appended
API doc: respond with a numeric literal and nothing else, no unit.

{"MUTATION ANNOTATION": "N7D", "MEASURED VALUE": 2.34}
{"MUTATION ANNOTATION": "D13Q", "MEASURED VALUE": 1.91}
{"MUTATION ANNOTATION": "D13G", "MEASURED VALUE": 3.29}
{"MUTATION ANNOTATION": "A12C", "MEASURED VALUE": 2.56}
{"MUTATION ANNOTATION": "D20H", "MEASURED VALUE": 2.14}
{"MUTATION ANNOTATION": "A17N", "MEASURED VALUE": 2.44}
{"MUTATION ANNOTATION": "K10C", "MEASURED VALUE": 1.35}
{"MUTATION ANNOTATION": "K10A", "MEASURED VALUE": 1.81}
{"MUTATION ANNOTATION": "A5K", "MEASURED VALUE": 2.01}
{"MUTATION ANNOTATION": "L8Y", "MEASURED VALUE": 1.36}

Tell me protein stability index reported for "T2R" 2.43

Entry "D9M" needs its protein stability index filled in; supply it. 2.23

Let me know recorded protein stability index for "N14V" , thanks. 2.43

Look up and state reported protein stability index for "L15S" 3.6

Specify protein stability index for "A5R" and stop. 1.74

Recall and state the measured protein stability index for "N14E" . 2.16
